Data provenance: patent US12012412B2

test: Solubility of Solid Form A and amorphous Compound X in various solvents at room temperature; assay type: physicochemical; conditions: methanol (MeOH), organic solvent or mixture, MeOH
measured_quantity: solubility

Record summary for C[C@@H]1CN(Cc2ncccn2)C[C@H]1c1nc2c(cnn2C2CCOCC2)c(=O)[nH]1 [Solid Form A] : reported solubility = > 71.4 mg/mL

====

assay: Thermodynamic solubility assessment of Solid Form B; format: physicochemical; conditions: simulated gastric fluid, thermodynamic from solid; pH 1.2 buffer, 25° C., 24 hours; read-out: HPLC conc. (mg/mL), thermodynamic solubility
measured_quantity: solubility thermodynamic at 24 h (mg/mL)
Respond numerically; units are mg/mL and should not be typed.

Record summary for C[C@@H]1CN(Cc2ncccn2)C[C@H]1c1nc2c(cnn2C2CCOCC2)c(=O)[nH]1 [Solid Form B] : reported solubility thermodynamic at 24 h = 46.7

====

experiment: Mechanical properties of batches of Solid Form A; assay type: physicochemical; conditions: lots of Solid Form A; A2 and A9 unmilled, A3 and A6/A7 milled
measured_quantity: Compression stress (MPa), Value
Respond numerically; units are MPa and should not be typed.

| compound | Compression stress (MPa), Value |
| --- | --- |
| CC1CN(Cc2ncccn2)CC1c1nc2c(cnn2C2CCOCC2)c(=O)[nH]1 (stereo not shown) [A9] | 52.5 |
| CC1CN(Cc2ncccn2)CC1c1nc2c(cnn2C2CCOCC2)c(=O)[nH]1 (stereo not shown) [A6/A7] | 56.3 |
| CC1CN(Cc2ncccn2)CC1c1nc2c(cnn2C2CCOCC2)c(=O)[nH]1 (stereo not shown) [A3] | 67.9 |

Continue with the next compound.
Record summary for CC1CN(Cc2ncccn2)CC1c1nc2c(cnn2C2CCOCC2)c(=O)[nH]1 (stereo not shown) [A2] : reported Compression stress (MPa), Value = 58.8

====

assay: Mechanical properties of batches of Solid Form A; type: physicochemical; settings: lots of Solid Form A; A2 and A9 unmilled, A3 and A6/A7 milled
measured_quantity: Brittle/viscoelastic bonding index (x105), Value

Check out these entries, answers already filled in.
| molecule | reported_measurement |
| --- | --- |
| CC1CN(Cc2ncccn2)CC1c1nc2c(cnn2C2CCOCC2)c(=O)[nH]1 (stereo not shown) [A6/A7] | 5.3 |
| CC1CN(Cc2ncccn2)CC1c1nc2c(cnn2C2CCOCC2)c(=O)[nH]1 (stereo not shown) [A9] | 1.95 |
| CC1CN(Cc2ncccn2)CC1c1nc2c(cnn2C2CCOCC2)c(=O)[nH]1 (stereo not shown) [A3] | 8.44 |

Record summary for CC1CN(Cc2ncccn2)CC1c1nc2c(cnn2C2CCOCC2)c(=O)[nH]1 (stereo not shown) [A2] : reported Brittle/viscoelastic bonding index (x105), Value = 2.61

====

experiment: Aqueous solubility of Solid Form A in biologically relevant pH conditions at 25° C.; format: physicochemical; conditions: aqueous buffer, thermodynamic from solid; 100 mM Phosphate buffer, pH 6.5, 25° C.
measured_quantity: solubility

Record summary for C[C@@H]1CN(Cc2ncccn2)C[C@H]1c1nc2c(cnn2C2CCOCC2)c(=O)[nH]1 [Solid Form A] : reported solubility = > 53.3 mg/mL

====

assay: Particle size of batches of Solid Form A; type: physicochemical; settings: batches of Solid Form A, milled or unmilled per batch
Let's look at some molecules and their measured Particle size D[v, 0.9].
Respond numerically; units are µm and should not be typed.

Check out these entries, answers already filled in.
| molecule | Particle size D[v, 0.9] [µm] |
| --- | --- |
| CC1CN(Cc2ncccn2)CC1c1nc2c(cnn2C2CCOCC2)c(=O)[nH]1 (centres unmarked) [A6] | 179 |
| CC1CN(Cc2ncccn2)CC1c1nc2c(cnn2C2CCOCC2)c(=O)[nH]1 (centres unmarked) [A8] | 118 |
| CC1CN(Cc2ncccn2)CC1c1nc2c(cnn2C2CCOCC2)c(=O)[nH]1 (centres unmarked) [A4] | 52.5 |
| CC1CN(Cc2ncccn2)CC1c1nc2c(cnn2C2CCOCC2)c(=O)[nH]1 (centres unmarked) [A5] | 197 |
| CC1CN(Cc2ncccn2)CC1c1nc2c(cnn2C2CCOCC2)c(=O)[nH]1 (centres unmarked) [A9] | 362 |

Record summary for CC1CN(Cc2ncccn2)CC1c1nc2c(cnn2C2CCOCC2)c(=O)[nH]1 (centres unmarked) [A2] : reported Particle size D[v, 0.9] = 247

Record summary for CC1CN(Cc2ncccn2)CC1c1nc2c(cnn2C2CCOCC2)c(=O)[nH]1 (centres unmarked) [A3] : reported Particle size D[v, 0.9] = 126

Record summary for CC1CN(Cc2ncccn2)CC1c1nc2c(cnn2C2CCOCC2)c(=O)[nH]1 (centres unmarked) [A10] : reported Particle size D[v, 0.9] = 129
